Test system: E. coli CAN-ICU 63074 (amikacin-intermediate resistant)
Type: cell-based
Peptide text beside a SMILES is read from it. * marks the point of attachment. Acetyl(1-adamantyl) = O=C(CC12CC3CC(CC(C3)C1)C2)*; Lauroyl = CCCCCCCCCCCC(=O)*; Octanoyl = CCCCCCCC(=O)*
Task for the reader: assign each of the following molecules its reported MIC.

Ask: Looking for the measured MIC of CCCCCCCCCCCC(=O)N1CCC[C@H]1C(=O)N[C@@H](CCCNC(=N)N)C(=O)N1CCC[C@H]1C(=O)N[C@@H](Cc1c[nH]c2ccccc12)C(=O)N1CCC[C@H]1C(=O)N[C@@H](CCCNC(=N)N)C(=O)N1CCC[C@H]1C(N)=O [Compound C12-PWP, CH3(CH2)10CO-PRPWPRP-NH2] (Lauroyl-PRPWPRP-NH2) , can you help?
Reply: 128 µg/mL

Ask: Continue with CCCCCCCCCCCC(=O)N1CCC[C@H]1C(=O)N[C@@H](CCCNC(=N)N)C(=O)N1CCC[C@H]1C(=O)N[C@@H](CC(C)C)C(=O)N1CCC[C@H]1C(=O)N[C@@H](CCCNC(=N)N)C(=O)N1CCC[C@H]1C(N)=O [Compound C12-PLP, CH3(CH2)10CO-PRPLPRP-NH2] (Lauroyl-PRPLPRP-NH2)
Reply: >128 µg/mL

Ask: Continue with CCCCCCCC(=O)N1CCC[C@H]1C(=O)N[C@@H](CCCNC(=N)N)C(=O)N1CCC[C@H]1C(=O)N[C@@H](CCCNC(=N)N)C(=O)N1CCC[C@H]1C(=O)N[C@@H](CCCNC(=N)N)C(=O)N1CCC[C@H]1C(N)=O [Compound C8-PRP, CH3(CH2)6CO-PRPRPRP-NH2] (Octanoyl-PRPRPRP-NH2)
Reply: >128 µg/mL

Ask: Continue with CCCCCCCCCCCC(=O)N1CCC[C@H]1C(=O)N[C@@H](CCCNC(=N)N)C(=O)N1CCC[C@H]1C(=O)NCC(=O)N1CCC[C@H]1C(=O)N[C@@H](CCCNC(=N)N)C(=O)N1CCC[C@H]1C(N)=O [Compound C12-PGP, CH3(CH2)10CO-PRPGPRP-NH2] (Lauroyl-PRPGPRP-NH2)
Reply: >128 µg/mL

Ask: Continue with N=C(N)NCCC[C@H](NC(=O)[C@@H]1CCCN1C(=O)[C@H](CCCNC(=N)N)NC(=O)[C@@H]1CCCN1C(=O)[C@H](CCCNC(=N)N)NC(=O)[C@@H]1CCCN1C(=O)CC12CC3CC(CC(C3)C1)C2)C(=O)N1CCC[C@H]1C(N)=O [Ad-PRP, Adamantyl-CH2CO-PRPRPRP-NH2] ({Acetyl(1-adamantyl)}-PRPRPRP-NH2)
Reply: >128 µg/mL

Ask: Continue with CC(C)C[C@H](NC(=O)[C@@H]1CCCN1C(=O)[C@H](CCCNC(=N)N)NC(=O)[C@@H]1CCCN1C(=O)CC12CC3CC(CC(C3)C1)C2)C(=O)N1CCC[C@H]1C(=O)N[C@@H](CCCNC(=N)N)C(=O)N1CCC[C@H]1C(N)=O [Ad-PLP, Adamantyl-CH2CO-PRPLPRP-NH2] ({Acetyl(1-adamantyl)}-PRPLPRP-NH2)
Reply: >128 µg/mL
